Hi there, I'd appreciate the recorded RP-LC retention time for every entry that follows.
Experiment: gradient 5% acetonitrile 3 min, to 50% in 2 min, to 85% in 15 min, held 3 min, 100 µL/min
Settings: column: Zorbax Extend-C18 2.1 x 50 mm; eluents: water / acetonitrile, 0.1% formic acid
Provide the reading as a plain figure in s.

Which RP-LC retention time is reported for this compound? `Cc1nc(-c2cn(C(C)C)c3ncccc23)sc1C(=O)N1CCC(C)CC1`
999

Which RP-LC retention time value belongs to O=C(CN1C(=O)C2CCCCN2c2ccc(S(=O)(=O)N3CCCC3)cc21)NCc1ccccn1 (centres undefined) ?
654

Requested read-out: RP-LC retention time. Entry: `Cc1nc(N2CCC(C(=O)Nc3cc(F)ccc3F)CC2)c2c(C)c(C)oc2n1`
972

Consider the compound shown here: `COc1ccc2[nH]cc(CCNC(=O)c3c(Cl)cccc3Cl)c2c1` What is its recorded RP-LC retention time?
774

Reported RP-LC retention time, compound `CCc1nc2ccc(-c3noc(CNC(=O)c4ccccc4)n3)cc2n1CC` : ____
637

Give its RP-LC retention time value. Item: `O=C(NCCCN1CCOCC1)c1c(OCC2CC2)cc(=O)n2c1CCCCC2`
568

Report RP-LC retention time for Cc1ccc(CNC(=O)C2CCCN(c3nnc4ccc(Cl)cn34)C2)o1 (centres undefined) please.
740

Reported RP-LC retention time for `COc1ccc(CN2C=C(C(=O)OCc3noc(C)n3)C(C)=NS2(=O)=O)cc1` : what is it?
873

I would be grateful if you could share the reported RP-LC retention time for `CC(C)n1cnc(S(=O)(=O)N2CCC(C(=O)Nc3ccc(Cl)cc3)CC2)c1` .
824

Need RP-LC retention time, item `O=C(c1cc(-c2ccncc2)n[nH]1)N1CCC(C(=O)N2CCc3ccccc32)CC1`
614

Give the measured RP-LC retention time of `Cn1nc(-c2nnc(-c3ccccc3F)o2)c2c1CCN(S(=O)(=O)c1ccc(Cl)s1)C2` .
1010

Item `CC1CCN(c2ncc3c(n2)CCN(Cc2ccc(OC(C)C)cc2)C3)CC1` has what recorded RP-LC retention time?
807

I am curious: what RP-LC retention time value has been reported for COc1ccc(Nc2c(C(=O)N3CCCC(C)C3)cnc3nc(C)ccc23)cc1OC (centres undefined) ?
610

Requested field: RP-LC retention time. Item: `Cc1cc2nn(CC(=O)Nc3ccc(Cl)cc3)c(=O)n2c(Nc2ccccc2)n1`
1050

// returns reported RP-LC retention time for input `O=S(=O)(NCCc1ccsc1)c1cccnc1`
686

Please give the measured RP-LC retention time for this compound: `Cc1cc(C)cc(Nc2c(C(=O)N3CCOCC3)cnc3nc(C)ccc23)c1`
604

For the compound shown here, `COc1ccc(Cn2c(=O)c3sccc3n(Cc3nc(-c4ccccc4OC)no3)c2=O)cc1` , give the reported RP-LC retention time.
970

I would be grateful if you could share the reported RP-LC retention time for `CSc1cccc(NC(=O)N2CCC(C)(C(=O)NCc3ccc4c(c3)OCO4)CC2)c1` .
837

Which RP-LC retention time value is on record for `O=C(CSCCc1ccccn1)Nc1c(F)c(F)c(F)c(F)c1F` ?
643

---

Test: gradient 5% acetonitrile 3 min, to 50% in 2 min, to 85% in 15 min, held 3 min, 100 µL/min
Conditions: column: Zorbax Extend-C18 2.1 x 50 mm; eluents: water / acetonitrile, 0.1% formic acid
Assign labels as follows, please: TRUE for RP-LC retention time below 700 s; FALSE for RP-LC retention time equal to or exceeding 700 s.

Record CC(C)(C)N(CC(=O)N(Cc1ccco1)CC1CCCO1)C(=O)Cc1ccccc1 (stereo unspecified) : is its RP-LC retention time strictly below 700 s?
FALSE

RP-LC retention time under 700 s? Item: CC(O)(CNS(=O)(=O)c1cccnc1)c1ccco1 (stereo unspecified)
TRUE

Confirm or reject: RP-LC retention time of CCCN(CC1CCOC1)S(=O)(=O)c1cc(Cl)ccc1OC (stereo unspecified) lies strictly below 700 s
FALSE

For `Cn1ccc2cc(CCC(=O)NCc3ccncc3)ccc21` , is the recorded RP-LC retention time below the cut-off of 700 s?
TRUE

Hello, is RP-LC retention time of the following compound strictly smaller than 700 s? `O=C(NCCC1=CCCCC1)C1CCN(c2cncnc2N2CCOCC2)CC1`
TRUE

Input `CCc1nnc([C@@H]2CC(F)(F)CN2C(=O)CCn2cccn2)o1` ; condition: RP-LC retention time strictly below 700 s. Does it hold?
TRUE

---

Please respond with reported RP-LC retention time for every item in the list.
Assay: gradient 5% acetonitrile 3 min, to 50% in 2 min, to 85% in 15 min, held 3 min, 100 µL/min
Settings: column: Zorbax Extend-C18 2.1 x 50 mm; eluents: water / acetonitrile, 0.1% formic acid
# value in s; strip the unit string

Which measured RP-LC retention time value corresponds to `CC(C)NC(=O)c1ccc(OCC2CCN(C(=O)c3cc(F)ccc3F)CC2)cc1` ?
850

Sample Cc1ccc(C(=O)N2CCCC2c2nc(-c3cccc(Cl)c3)no2)cc1C (centres undefined) — what was its RP-LC retention time?
1200

Give the measured RP-LC retention time of `COc1ccc(-c2cn3c(CC(=O)Nc4cccc(C(F)(F)F)c4)csc3n2)cc1OC` .
841

Looking for the measured RP-LC retention time of `Cc1ccc(NS(=O)(=O)c2cc3n(c2)CCN(C(C)C)C3=O)cc1C` , can you help?
794

Which RP-LC retention time is reported for this molecule? `COc1ccc2[nH]cc(CCNC(=O)c3cccc(Cl)c3)c2c1`
840

Query (molecule): `CC(C)(C)NC(=O)CCc1c(-c2ccccc2)nc2ccccn12` ; field requested: RP-LC retention time
632

Which RP-LC retention time value belongs to `COc1ccc(-c2ncc3c(n2)CCN(S(=O)(=O)c2ccc(Cl)s2)C3)cc1` ?
1140

Looking for the measured RP-LC retention time of `Cc1oc2c(c1C(=O)NCCc1ccccc1)C1=NC(C)(C)CN1C=N2` , can you help?
653

For the molecule CCN(CC)c1ncc2c(n1)CCC(C(=O)Nc1ccc(N3CCOCC3)cc1)C2 (centres undefined) , what RP-LC retention time is on record?
641

---

Test: gradient 5% acetonitrile 3 min, to 50% in 2 min, to 85% in 15 min, held 3 min, 100 µL/min
Conditions: column: Zorbax Extend-C18 2.1 x 50 mm; eluents: water / acetonitrile, 0.1% formic acid
Please respond with 1 when measured RP-LC retention time is strictly beneath 800 s, and with 0 in all other cases.

Strictly below 800 s in RP-LC retention time? `CCOc1ccc(NS(=O)(=O)c2cc(-c3nc(C(C)(C)C)cs3)cs2)cc1`
0

Please indicate whether the reported RP-LC retention time of Cc1cc(C)n(CC(=O)N(C)C2CCc3nn(CC4CC4)c(=O)n3CC2)n1 (centres undefined) is strictly below 800 s.
1

RP-LC retention time under 800 s? Item: `O=C(c1ccco1)N1CCCN(c2ccc(=O)n(-c3ccccc3)n2)CC1`
1

# TODO verify RP-LC retention time < 800 s strictly for this compound: Cc1nn(C2CCS(=O)(=O)C2)c2nc(-c3ccco3)cc(C(=O)NCC3CCCO3)c12 (centres undefined)
1

Consider `CS(=O)(=O)Nc1ccc(-c2noc(-c3ccc4c(c3)OCO4)n2)cc1` . Does its RP-LC retention time lie strictly below 800 s?
0

Does the reported RP-LC retention time of `Fc1cccc(-c2noc(Cc3nnc(-c4cccc(Cl)c4)o3)n2)c1` stay below 800 s?
0

hey, is RP-LC retention time for `CC(C)NC(=O)N(C1CCOCC1)C1CN(C(=O)c2ccnn2C)C1` lower than 800 s or not?
1

Please indicate whether the reported RP-LC retention time of `CCc1cccc(CC)c1NC(=O)c1cccc(OC)c1` is strictly below 800 s.
0

Input `CCn1ccc(NC(=O)c2ccc(C)cc2C)n1` ; condition: RP-LC retention time strictly below 800 s. Does it hold?
1

Hi there! Is RP-LC retention time for `Cn1cc(-c2noc(-c3cc(F)ccc3Cl)n2)ccc1=O` below 800 s, do you know?
0

I'd appreciate it if you could check whether COc1ccc(S(=O)(=O)N2CCCC(C(=O)NCCC3=CCCCC3)C2)cc1C (centres undefined) has RP-LC retention time smaller than 800 s.
0

Quick check: does `CC(C)n1cc(S(=O)(=O)N2CCN(c3cccc(Cl)c3)CC2)c2cccnc21` have RP-LC retention time under 800 s?
1

Given `CCS(=O)(=O)N1CCC(Cc2ccc(CN3CCOCC3)cc2)CC1` , is recorded RP-LC retention time strictly lower than 800 s?
1

Here's an entry: Cn1ccc2cc(S(=O)(=O)N3CCCC(C(=O)N4CCN(c5ccccn5)CC4)C3)ccc21 (centres undefined) . Is its RP-LC retention time below 800 s?
1

Record COCCN1C(=O)c2cccn2CC1CNC(=O)c1cnc(C)cn1 (centres undefined) : is its RP-LC retention time strictly below 800 s?
1

Please check: RP-LC retention time for `Cc1ccc(Cl)cc1NC(=O)N1CCc2nc[nH]c2C1` , strictly under 800 s or not?
1

Dear reviewer, please state whether `CCN(Cc1ccccc1)C(=O)c1noc2c1CCCC2` has RP-LC retention time strictly beneath 800 s.
0

Please let me know if `CN(CCc1noc(-c2ccccc2)n1)C(=O)CSc1ccccc1` shows RP-LC retention time below 800 s.
0

Report whether reported RP-LC retention time is lower than 800 s (strictly) for `Cc1oc(-c2ccn[nH]2)cc1S(=O)(=O)Nc1ccc(F)c(Cl)c1`
0

Does `Cc1cc2nn(CC(=O)Nc3cccc(C)c3C)c(=O)n2c(-c2ccc(F)cc2)n1` have RP-LC retention time strictly under 800 s?
0

Quick check: does COc1cc(C(C)=O)ccc1OCC(O)CN1CCN(c2ccccc2F)CC1 (centres undefined) have RP-LC retention time under 800 s?
1

Determine whether this compound shows RP-LC retention time lower than 800 s (ties excluded): CCOCCCNC(=O)C1CCCN(c2nc3ccc(Br)cc3[nH]2)C1 (centres undefined)
1

Is it true that RP-LC retention time reported for `Cc1oc(-c2[nH]ncc2C(=O)N2CCCC2)cc1S(=O)(=O)NCc1ccc(Cl)cc1` is less than 800 s?
1

Quick check: does `Cc1ccc(-c2nn3c(N4CCN(c5ccccn5)CC4)cc(C)nc3c2C)cc1` have RP-LC retention time under 800 s?
1

Field: below-cutoff. Rule: recorded RP-LC retention time strictly less than 800 s. Subject: `COc1ccc(-c2cn3cccnc3n2)cc1NC(=O)c1c(F)cccc1F`
1

Problem: For the compound `CCc1ccc(NC(=O)C2CCN(S(=O)(=O)c3ccc4c(c3)sc(=O)n4CC)CC2)cc1` , is RP-LC retention time under 800 s?
0

Criterion: RP-LC retention time strictly below 800 s. Is it met by `CCN1CCN(CCCNC(=O)C2=Cc3cc(OC)ccc3OC2)CC1` ?
1

Say whether its RP-LC retention time is strictly beneath 800 s. Entry: `Cc1ccc(-c2cc3c4nnc(SCC(=O)Nc5cccc(C)c5C)n4ccn3n2)cc1C`
0

Does this compound meet the criterion RP-LC retention time < 800 s? `O=C(Cn1cc(-c2nnco2)c2ccccc21)NCc1cccc(Br)c1`
1

Consider `O=S(=O)(c1cccc2cccnc12)N1CC[C@@H]2COCCN(Cc3cccnc3)[C@@H]2C1` . Does its RP-LC retention time lie strictly below 800 s?
1

Consider `Cn1c(=O)n(Cc2ccccc2)c(=O)c2c1nc(N1CCNCC1)n2Cc1ccccc1` . Does its RP-LC retention time lie strictly below 800 s?
1

Report whether reported RP-LC retention time is lower than 800 s (strictly) for `O=C(Cc1csc(NC(=O)c2ccc(=O)[nH]c2)n1)NCc1ccccc1Cl`
1
